B1: CPEB3 Ribozyme (parent)
chain: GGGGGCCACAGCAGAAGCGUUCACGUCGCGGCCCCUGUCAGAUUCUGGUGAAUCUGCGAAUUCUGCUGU

Variants of: B1
Test: self-cleavage, relative activity (ratio to wild type); higher = more cleavage; co-transcriptional
Below is a list of entries, each paired with its recorded self-cleavage value.
Observation type: self-cleavage

Mutant code	Value
G11C U49C	0.803
C9U U26A	0.929
A60U G65C	0.362
A13C G30A	0.497
C35G U64A	0.402
C35G U53A	0.407
C54G U61A	0.569
G14U U69A	0.923
G4A C34G	0.16
A10C U64C	0.769
C29U A51U	0.432
G3A G31U	0.154
G19U U21G	0.159
